- Assay name: Rabbit ocular PK study of PS emulsion (2% PS)
- Type: in vivo, New Zealand rabbits
- Test settings: 2% PS emulsion, three 25 μL eye drops; PS and its metabolites
- Method: A formulation includes 2% PS; 5% Propylene glycol, 10% Mineral oil, 4% Tween 60, 4% Tween 80, 10% (2-hydroxypropyl)-β-cyclodextrin (HP-β-CD). Preparation method (2 mL scale): Oil phase: weight PS into glass vial, add propylene glycol, stir at 50° C. to obtain a clear solution. Then add mineral oil, stir to obtain a clear solution. Water phase: Dissolve HP-β-CD, […] and Tween 80 into water. Add water phase into oil phase, probe-sonicate for 5 sec, 8 times, with 5 sec intervals. […]
Measurement label: Cmax, conjunctiva (μm)
Only the number, expressed in μm, is required.

CC1=C(CC(=O)O)c2cc(F)ccc2/C1=C\c1ccc(S(C)(=O)=O)cc1 | 0.8
CSc1ccc(/C=C2/C(C)=C(CC(=O)O)c3cc(F)ccc32)cc1 [sulindac sulfide] | 0.0
CC1=C(CC(=O)O)c2cc(F)ccc2/C1=C\c1ccc([S+](C)[O-])cc1 (stereo not shown) [sulindac, reference compound] | 4.2

Alright, here's another compound for you.
Incoming: Provide measured Cmax, conjunctiva value, entry: CCOP(=O)(OCC)OCCCCOC(=O)CC1=C(C)/C(=C/c2ccc([S+](C)[O-])cc2)c2ccc(F)cc21 (stereo not shown)
Outgoing: 33.6
